Biological target: T1, PDZRN3_1, Q9UPQ7
T1 sequence (Q9UPQ7 244-349, limits assumed, looked up): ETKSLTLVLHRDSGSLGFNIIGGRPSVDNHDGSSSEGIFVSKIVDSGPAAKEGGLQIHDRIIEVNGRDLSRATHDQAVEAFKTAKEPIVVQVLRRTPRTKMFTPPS
Experiment: holdup assay
Design: key: below the threshold = too weak to quantify, mostly under pKd 3.1 to 4
Settings: plain residues with an end cap or a label only (N-terminal biotin on a linker: ttds)
Quick rule: pKd of at least 5 means MET, below that means NOT MET.

(Q) Kindly determine if pKd recorded for SRSRRRETAL [HPV33-E6, P06427] is above or exactly 5.
(A) MET

(Q) Kindly determine if pKd recorded for GRLLGLETNV [ARHGEF26, Q96DR7] is above or exactly 5.
(A) NOT MET

(Q) Kindly determine if pKd recorded for SGGKRKETLV [NET1, Q7Z628] is above or exactly 5.
(A) NOT MET

(Q) Kindly determine if pKd recorded for QRPYRRESEI [KCNJ12, Q14500] is above or exactly 5.
(A) NOT MET

(Q) Kindly determine if pKd recorded for FVETQHQTQV [FAT3, Q8TDW7] is above or exactly 5.
(A) NOT MET

(Q) Kindly determine if pKd recorded for SSIDLWETAL [SLC15A5, A6NIM6] is above or exactly 5.
(A) MET

(Q) Kindly determine if pKd recorded for NPDALPETLV [ARHGAP6, O43182] is above or exactly 5.
(A) NOT MET
